test: Non competitive inhibition of yeast alpha-glucosidase using PNP glycoside as substrate preincubated for 30 mins by Lineweaver-Burk plot analysis; design: species or system Saccharomyces cerevisiae
pKi: −log10 of the molar value.
QUANTITY_NAME: pKi

Summary for this compound, O=c1c2c(O)cc(O)cc2oc2cc(O)c(-c3c(O)ccc4ccc(O)cc34)c(O)c12 : pKi is 4.29

a. O=c1c2c(O)cc(O)cc2oc2cc(O)c(-c3c(O)ccc4ccccc34)c(O)c12
b. O=c1c2c(O)cc(O)cc2oc2cc(O)cc(O)c12
Compare a and b and name the one whose reported pKi is smaller. API: response body contains the label of the selected item.
b
(b: 4.20, a: 4.53)

---

test: Inhibition of yeast alpha-glucosidase using PNP glycoside as substrate after 30 mins by spectrophotometry; parameters: species or system Saccharomyces cerevisiae
pIC50: −log10 of the molar value.
QUANTITY_NAME: pIC50

The reported pIC50 of the molecule O=c1c2c(O)cc(O)cc2oc2cc(O)c(-c3c(O)ccc4ccccc34)c(O)c12 was 5.09

Recorded pIC50 (molecule OC[C@H]1NC[C@H](O)[C@@H](O)[C@@H]1O ): 4.40

pIC50 in this record for O=c1c2ccccc2oc2cc(O)c(-c3c(O)ccc4ccc(O)cc34)c(O)c12 : 4.12

I. O=c1c2ccc(O)cc2oc2cc(O)cc(O)c12
II. Cc1ccc2oc3c(-c4c(O)ccc5ccccc45)c(O)c(-c4c(O)ccc5ccccc45)c(O)c3c(=O)c2c1
Hey, between I and II which has a smaller measured pIC50? Write down the label attached to your selection.
I
(I: 4.38, II: 5.19)

P. O=c1c2ccc(O)cc2oc2c(-c3c(O)ccc4ccccc34)c(O)c(-c3c(O)ccc4ccccc34)c(O)c12
Q. O=c1c2ccccc2oc2cc(O)cc(O)c12
R. Cc1ccc2oc3cc(O)c(-c4c(O)ccc5ccccc45)c(O)c3c(=O)c2c1
Task field, ranking: reported pIC50, descending order. Sort the labels as requested; that list is your answer.
P, R, Q
(P: 5.21, R: 4.58, Q: 3.79)
